Tested on: CYP3A
Test: Pre-incubation study (time-dependent / mechanism-based inhibition) of MDZ 1'-OH activity in human liver microsomes
Format: in vitro ADME
Details: human, human liver microsomes, probe midazolam (MDZ) 10 µM, 1'-hydroxylation; HLM + NADPH, pre-incubation, 10-fold dilution; read-out: kinact (maximal inactivation rate constant) (converted)
kinact values for the compounds below.
Give your result in s⁻¹ as a bare value.

1. COc1cc(OC)c2c(=O)c(OC)c(-c3ccc(OC)c(OC)c3)oc2c1    2.67e-05

Could you now consider this next compound?
**Q:** Look up and report measured kinact for this entry: `COc1cc(OC)c2c(=O)cc(-c3ccccc3)oc2c1`
**A:** 0.000433
